SYSTEM: Voltage-gated inwardly rectifying potassium channel KCNH2 (Homo sapiens, UniProt Q12809)
Sequence (Q12809 whole entry): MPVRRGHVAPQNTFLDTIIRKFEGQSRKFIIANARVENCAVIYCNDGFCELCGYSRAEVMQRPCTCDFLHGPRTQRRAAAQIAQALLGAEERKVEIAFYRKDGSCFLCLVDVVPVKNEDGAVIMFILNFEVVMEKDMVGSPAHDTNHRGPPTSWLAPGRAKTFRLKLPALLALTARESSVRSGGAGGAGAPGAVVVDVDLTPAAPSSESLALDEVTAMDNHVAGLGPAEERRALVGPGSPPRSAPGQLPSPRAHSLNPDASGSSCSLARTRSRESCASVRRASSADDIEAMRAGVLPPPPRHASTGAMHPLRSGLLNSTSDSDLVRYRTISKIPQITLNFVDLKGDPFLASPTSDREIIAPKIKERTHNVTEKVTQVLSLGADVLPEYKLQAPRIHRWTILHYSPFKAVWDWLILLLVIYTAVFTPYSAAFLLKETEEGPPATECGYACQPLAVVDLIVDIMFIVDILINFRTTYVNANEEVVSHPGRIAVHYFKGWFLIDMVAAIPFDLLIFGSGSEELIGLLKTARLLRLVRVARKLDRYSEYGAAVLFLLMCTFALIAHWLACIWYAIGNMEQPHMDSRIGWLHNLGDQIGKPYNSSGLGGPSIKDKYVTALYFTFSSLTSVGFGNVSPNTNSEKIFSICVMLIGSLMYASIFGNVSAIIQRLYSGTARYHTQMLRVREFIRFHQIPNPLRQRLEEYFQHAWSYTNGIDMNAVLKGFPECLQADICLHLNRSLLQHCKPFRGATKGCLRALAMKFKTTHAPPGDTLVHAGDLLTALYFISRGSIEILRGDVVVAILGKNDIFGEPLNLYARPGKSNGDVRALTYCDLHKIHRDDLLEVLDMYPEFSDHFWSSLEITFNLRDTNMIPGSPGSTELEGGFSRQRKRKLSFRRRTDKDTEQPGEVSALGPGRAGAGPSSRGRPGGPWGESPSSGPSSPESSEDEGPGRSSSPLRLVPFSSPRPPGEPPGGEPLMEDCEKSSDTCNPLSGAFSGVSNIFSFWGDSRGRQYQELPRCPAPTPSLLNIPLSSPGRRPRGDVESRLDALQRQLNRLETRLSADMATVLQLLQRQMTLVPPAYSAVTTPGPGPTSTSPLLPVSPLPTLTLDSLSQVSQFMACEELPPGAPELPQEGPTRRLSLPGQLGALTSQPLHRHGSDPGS
RUN_DESCRIPTION: Inhibition of human Potassium channel HERG expressed in mammalian cells
Kindly state pIC50 for each of the entries shown.
Give bare numbers, as −log10 of the molar value.

Below are worked cases with known answers.
1) COc1ccc(C(=O)N2CCN(c3ccc4c(c3)CCC(=O)N4)CC2)cc1OC: 5.96
2) CN1CCC[C@H]1c1cccnc1: 3.61
3) CCOC(=O)C1=C(C)NC(C)=C(C(=O)OC)C1c1cccc([N+](=O)[O-])c1 (configuration not stated): 5.00

# map each compound to its pIC50
1. COc1c(N2CCNC(C)C2)c(F)cc2c(=O)c(C(=O)O)cn(C3CC3)c12 (configuration not stated)
2. COc1ccc(C2CCN(CC[C@H]3CCOc4ccccc43)CC2)cc1OC
3. Oc1ccc(CCN2CCC(Nc3nc4ccccc4n3Cc3ccc(F)cc3)CC2)cc1
4. CC[C@H]1OC(=O)[C@H](C)[C@@H](O[C@H]2C[C@@](C)(OC)[C@@H](O)[C@H](C)O2)[C@H](C)[C@@H](O[C@@H]2O[C@H](C)C[C@H](N(C)C)[C@H]2O)[C@](C)(OC)C[C@@H](C)C(=O)[C@H](C)[C@@H](O)[C@]1(C)O
5. COc1ccc(C2CCN(CCC3CCOc4ccccc43)CC2)cc1OC (configuration not stated)
6. O=C(O[C@H]1C[C@@H]2C[C@@H]3C[C@@H](C1)N2CC3=O)C1CNc2ccccc21 (some centres not stated)
7. C[C@@H]1CN(c2c(F)c(N)c3c(=O)c(C(=O)O)cn(C4CC4)c3c2F)C[C@H](C)N1

OUTPUT:
1. 3.89
2. 6.60
3. 9.00
4. 4.23
5. 6.70
6. 5.23
7. 4.74

# map each compound to its pIC50
1. CN(c1nccc(=O)[nH]1)C1CCN(c2nc3ccccc3n2Cc2ccc(F)cc2)CC1
2. Cc1cc2c(s1)Nc1ccccc1N=C2N1CCN(C)CC1

OUTPUT:
[6.36, 6.74]
